src = PubChem BioAssay (NCI)

Test system: A549 NSCLC
ASSAY REMARKS: NCI tumour cell line growth inhibition, 48 h

COMPOUND	TGI
O=C(O)C1C2C=CC(O2)C1C(=O)NCc1cccnc1 (stereo not given)	> 100 µM
CC1CC(=O)Nc2ccc(Cl)cc2N1C(=O)CN1CCC(CCCCN(C)C)CC1 (stereo not given)	> 100 µM
C[C@@H](O)[C@@H](C)Oc1nc(Nc2ccc(S(=N)(=O)C3CC3)cc2)ncc1C(F)(F)F (stereo not given in full)	15.6 µM
O=C(N/N=C(/COc1ccccc1)N=Cc1ccncc1)c1ccncc1	> 100 µM
N#CCCN(CCC#N)c1ccc(/C=C(/NC(=O)c2cc([N+](=O)[O-])ccc2Cl)C(=O)N=[N+]=[N-])cc1	> 100 µM
Cc1noc2cccc(O)c12	> 100 µM
N#C/C(=C\c1ccc(O)c(O)c1)C(=O)NCc1ccc(C(F)(F)F)cc1	53.5 µM
CCCCCC/C=C/C#CCCCCCCCC(=O)O	> 100 µM
O/N=C1/CCC/C1=C\c1ccccc1	> 100 µM
C[C@@H](C1CC[C@H]2[C@@H]3[C@@H]4O[C@@H]4[C@@]4(O)CC=CC(=O)[C@]4(C)[C@H]3C[C@H](O)[C@]12C)[C@H]1C[C@]2(C)O[C@]2(C)C(=O)O1 (stereo not given in full)	> 100 µM
Oc1cc(O)c2c(c1)O[C@H](c1ccc(O)c(O)c1)[C@@H](O)C2	> 100 µM
Cc1cc(F)c(C(=O)Nc2cccc(-c3nncn3C(C)C)n2)cc1-n1cnc(C2CC2)c1	74 µM
CCO/C(O)=C(/C(=N)N1CCOCC1)C(=O)Nc1cccc(C(F)(F)F)c1	> 100 µM
COc1ccc(C(c2ccccc2C(=O)O)c2ccc(OC)c3ccccc23)c2ccccc12	31 µM
O=C1Cc2c(-c3ccccc3)cc(-c3ccccc3)nc2-c2ccccc2N1	26.6 µM
